Listed below: IC50 values for each entry.
System: 786-O (renal cell carcinoma) cells
assay: Cell proliferation (Alamar Blue) assay, 786-O cells
Type: cell-based
reported conditions: Homo sapiens, 786-0; 786-O cells, 24 h compound incubation, Alamar Blue; read-out: Cell proliferation IC50 (μM) 786-O

compound	target or system	IC50 / µM
COc1ccc2c(c1)C[C@H](C1CCC1)N(C(=O)C#C[Si](C)(C)C)[C@@H]2c1ccc(NC23CC4CC(CC(C4)C2)C3)cc1 (stereo in doubt)	786-O (renal cell carcinoma) cells	0.064
CCCC[C@H]1Cc2cc(OC)ccc2[C@H](c2ccc(NC3CCC3)cc2)N1C(=O)C#C[Si](C)(C)C	786-O (renal cell carcinoma) cells	0.171
CCCC[C@H]1Cc2cc(C(F)(F)F)ccc2[C@H](c2ccc(NC34CC5CC(CC(C5)C3)C4)cc2)N1C(=O)C#C[Si](C)(C)C	786-O (renal cell carcinoma) cells	0.015
CCCC[C@H]1Cc2cc(OC)ccc2[C@H](c2ccc(NC34CC5CC(C3)CC(OC(=O)[C@@H](N)C(C)C)(C5)C4)cc2)N1C(=O)C#C[Si](C)(C)C	786-O (renal cell carcinoma) cells	0.0177
COC[C@H]1Cc2cc(OC)ccc2[C@@H](c2ccc(NC34CC5CC(CC(C5)C3)C4)cc2)N1C(=O)C#C[Si](C)(C)C	786-O (renal cell carcinoma) cells	0.039
CCCC[C@H]1Cc2cc(OC)ccc2[C@H](c2ccc(NC34CC5CC(CC(C5)C3)C4)c(Cl)c2)N1C(=O)C#C[Si](C)(C)C	786-O (renal cell carcinoma) cells	0.31
CCCC[C@H]1Cc2cc(OC)ccc2[C@@H](c2ccc(NC34CC5CC(CC(C5)C3)C4)c(C#N)c2)N1C(=O)C#C[Si](C)(C)C (stereo in doubt)	786-O (renal cell carcinoma) cells	0.016
CCCC[C@H]1Cc2cc(OC)ccc2[C@H](c2ccc(NC34CC5CC(CC(C5)C3)C4)c(C#N)c2)N1C(=O)C#C[Si](C)(C)C	786-O (renal cell carcinoma) cells	0.021
CCCC[C@H]1Cc2cc(OC)ccc2[C@H](c2ccc(NC34CC5CC(CC(C5)C3)C4)cc2)N1C(=O)C#C[Si](C)(C)CCCOC(C)=O	786-O (renal cell carcinoma) cells	0.0125
CCCC[C@H]1Cc2cc(OC)ccc2[C@H](c2ccc(NC3CC(F)(F)C3)cc2)N1C(=O)C#C[Si](C)(C)C	786-O (renal cell carcinoma) cells	0.109
CCCC[C@H]1Cc2cc(OC)ccc2[C@H](c2ccc(N3CCC(F)(F)C3)cc2)N1C(=O)C#C[Si](C)(C)C	786-O (renal cell carcinoma) cells	0.051
CCC[C@H]1Cc2cc(OC)ccc2[C@@H](c2ccc(NC34CC5CC(CC(C5)C3)C4)cc2)N1C(=O)C#C[Si](C)(C)C	786-O (renal cell carcinoma) cells	0.067

* * *

Test system: 786-O (renal cell carcinoma) cells
assay: Cell proliferation (Alamar Blue) assay, 786-O cells
Assay type: cell-based
reported conditions: Homo sapiens, 786-0, 24 h, read-out: Cell proliferation IC50 (μM) 786-O

smiles str	target or system	IC50 [µM]
CCCC[C@H]1Cc2c([nH]c3ccccc23)[C@H](c2ccc(NC3CCC3)cc2)N1C(=O)C#C[Si](C)(C)C	786-O (renal cell carcinoma) cells	0.009

* * *

Test system: 786-O (renal cell carcinoma) cells
assay: Cell proliferation (Alamar Blue) assay, 786-O cells
Assay type: cell-based
reported conditions: Homo sapiens, 786-0; 786-O cells, 24 h compound incubation, Alamar Blue; read-out: Cell proliferation IC50 (μM) 786-O
Listed below: IC50 values for each entry.

smiles str	IC50
COc1ccc2c(c1)C[C@H](C1CCC1)N(C(=O)C#C[Si](C)(C)C)[C@H]2c1ccc(NC23CC4CC(CC(C4)C2)C3)cc1	0.021 µM
CCCC[C@H]1Cc2cc(OC)ccc2[C@H](c2ccc(NC34CC5CC(CC(C5)C3)C4)cc2)N1C(=O)C#C[Si](C)(C)CC	0.023 µM
CCCC[C@H]1Cc2cc(OC)ccc2[C@H](C23CC(F)(C2)C3)N1C(=O)C#C[Si](C)(C)C	0.18 µM
CCCC[C@H]1Cc2cc(OC)ccc2[C@H](c2ccc(C#N)cc2)N1C(=O)C#C[Si](C)(C)C	0.043 µM
CCCC[C@H]1Cc2cc(OC)ccc2[C@@H](C23CC(F)(C2)C3)N1C(=O)C#C[Si](C)(C)C	0.075 µM
CCCC[C@H]1Cc2cc(OC)ccc2[C@H](c2ccc(NC34CC5CC(CC(C5)C3)C4)cc2)N1C(=O)C#C[Si](C)(C)C	0.021 µM
COc1ccc2c(c1)C[C@H](CC(C)C)N(C(=O)C#C[Si](C)(C)C)[C@H]2c1ccc(NC23CC4CC(CC(C4)C2)C3)cc1	0.0725 µM
CCCC[C@H]1Cc2cc(OC(F)(F)F)ccc2[C@H](c2ccc(NC34CC5CC(CC(C5)C3)C4)cc2)N1C(=O)C#C[Si](C)(C)C	0.043 µM
CCCC[C@H]1Cc2cc(OCCO)ccc2[C@H](c2ccc(NC34CC5CC(CC(C5)C3)C4)cc2)N1C(=O)C#C[Si](C)(C)C	0.0053 µM
CCC[C@H]1Cc2cc(OC)ccc2[C@H](c2ccc(NC34CC5CC(CC(C5)C3)C4)cc2)N1C(=O)C#C[Si](C)(C)C	0.029 µM
CCCC[C@H]1Cc2cc(OC)ccc2[C@H](c2ccc(NC34CC5CC(CC(O)(C5)C3)C4)cc2)N1C(=O)C#C[Si](C)(C)C	0.049 µM
